Data provenance: PubChem BioAssay (NCI)

test system: EKVX NSCLC; test: NCI tumour cell line growth inhibition, 48 h
Use 20 µM as the dividing line for TGI, with the line itself on the criterion met side and lower values as criterion not met.

Problem: // inclusive: TGI at least 20 µM? input: O=C(NCCCl)NCCN1c2nc3ccccc3cc2Sc2cc3ccccc3nc21
Result: criterion met

Problem: Has CSC1=C(SC)C(=O)c2cn(C)c(=O)cc2C1=O a recorded TGI greater than or equal to 20 µM?
Result: criterion met

Problem: Hi, just wondering whether O=C(c1cc(Cl)cc(Cl)c1)N(Cc1cccnc1)C(=S)N(Cc1cccnc1)C(=O)c1cc(Cl)cc(Cl)c1 shows TGI of 20 µM or higher.
Result: criterion met

Problem: Reported TGI at or above 20 µM? CSCCC(NC(=O)Cc1ccc(C(=O)c2ccccc2)cc1)C(=O)N1CCN(CCCCN2c3ccccc3Sc3cc(N=[N+]=[N-])ccc32)CC1 (centres undefined)
Result: criterion met

Problem: Determine whether this compound has TGI no lower than 20 µM: COC(=O)CNC(=O)CNC(=O)CSc1nnc(COc2ccc(Cl)cc2)n1-c1ccccc1
Result: criterion met

Problem: Determine whether this compound has TGI no lower than 20 µM: CCCCCCCCCCCCNC(=O)N[C@H](C(=O)N[C@H]1/C=C/CCNC(=O)/C=C/[C@H](C)NC1=O)C(C)C
Result: criterion not met

Problem: Reported TGI at or above 20 µM? C/C=C(\C)c1cc(=O)c2c(C)cc3c(c2o1)C(OC)(OC(C)=O)c1c(O)c(C2CC(C)(N(C)C)C(OC(C)=O)C(C)O2)cc(C2CC(N(C)C)C(OC(C)=O)C(C)O2)c1C3=O (centres undefined)
Result: criterion not met

Problem: Hi, just wondering whether Cc1cn(CC2=NC3CCCCC3N2)c(=O)[nH]c1=O (centres undefined) shows TGI of 20 µM or higher.
Result: criterion met

Problem: Does TGI meet or surpass 20 µM for Nc1nc(=S)c2ncn(C3OC(CO)C(O)C3O)c2[nH]1 (centres undefined) ?
Result: criterion met

Problem: Kindly determine if TGI recorded for NC1=NCC(CN2CCCCC2)O1 (centres undefined) is above or exactly 20 µM.
Result: criterion met

Problem: Identify whether the reported TGI of the following compound is 20 µM or greater: O=[N+]([O-])c1ccc(Cc2nc3cc4ccccc4cc3[nH]2)cc1C(F)(F)F
Result: criterion met

Problem: Threshold query (TGI >= 20 µM) on N#CC(C(=O)/C(=N/NC(=O)c1ccccc1O)C(C#N)c1ccc(Br)cc1)c1ccc(Br)cc1 (centres undefined)
Result: criterion met

Problem: Given CC(O)CC(=O)CO[C@H]1[C@H](O)[C@@H](O)[C@@H](O)[C@@H]2NC(=O)c3c(cc4c(c3O)OCO4)[C@H]21 (some centres undefined) , state whether its TGI is at least 20 µM.
Result: criterion not met

Problem: Entry O=C1Nc2ccc(O)cc2/C1=C\c1ccncc1 : is its TGI no less than 20 µM?
Result: criterion met

Problem: Textbook exercise: given the entry COc1ccc2nc3cc([N+](=O)[O-])ccc3c(NNc3ccc([N+](=O)[O-])cc3)c2c1 , state whether its TGI is greater than or equal to 20 µM.
Result: criterion met

Problem: Check the entry Cn1cnc([N+](=O)[O-])c1Sc1nc2ccccc2o1 : does TGI equal or exceed 20 µM?
Result: criterion not met

Problem: Decide: TGI of C=C1C(=O)O[C@@H]2C[C@@H]1CC[C@]1(C)O[C@H]1CC/C(C)=C/CC[C@@]2(C)O >= 20 µM?
Result: criterion met

Problem: Exam item: decide whether the reported TGI for CO[C@H](C(=O)O[C@H]1C(=O)N2CC[C@@H]3CCC[C@H]1C32C)c1ccccc1 (some centres undefined) is at least 20 µM.
Result: criterion met
